biological target: IL-17A : IL-17RA binding (Homo sapiens, UniProt Q16552, K93Q); construct: Name: IL-17A-Flag; experiment: IL-17A(FLAG-tagged):IL-17RA(His-tagged) binding disruption Eu-HTRF assay, Protocol 1; details: FLAG-IL-17A 2.5 nM at 2x final concentration; average if tested more than once
Sequence (Q16552 with tags, fused parts or gaps K93Q): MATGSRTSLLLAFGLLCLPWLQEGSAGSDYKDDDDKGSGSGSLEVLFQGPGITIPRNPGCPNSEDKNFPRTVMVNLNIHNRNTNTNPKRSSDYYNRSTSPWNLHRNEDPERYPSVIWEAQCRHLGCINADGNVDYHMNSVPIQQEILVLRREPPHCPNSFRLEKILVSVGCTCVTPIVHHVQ
List of IC50 values.

• CC(CC(=O)N[C@H](C)c1ccc2nc([C@@H](NC(=O)c3ccnn3CC(F)(F)F)C3CCC(F)(F)CC3)[nH]c2c1)C(F)(F)F (single isomer, unassigned) [Example 137] = > 100 nM
• CC(C)n1ncc(F)c1C(=O)NC(CC(C)(C)C(F)(F)F)c1nc2cc([C@@H](C)NC(=O)CCC(F)(F)F)ccc2[nH]1 (single isomer, unassigned) = > 100 nM

Lookup result for "C[C@@H](NC(=O)CCC(F)(F)F)c1ccc2[nH]c([C@@H](NC(=O)c3ncnn3C)C3CCC(F)(F)CC3)nc2c1" ; measured IC50: > 100 nM
